Exercise: state measured TGI for each of the molecules provided.
Test system: NCI-H522 lung
Assay: NCI tumour cell line growth inhibition, 48 h

Inquiry: Consider the molecule shown here: CC1[C@@]2(O[C@@H]3C=C4C5CCC6Cc7nc8c(nc7C[C@@]6(C)C5C[C@H](O)[C@@]4(C)[C@]13O)CC1CCc3c(cc4c5c3C(O)C[C@H]5[C@@H](C)C3(O4)OC(C)(C)CC3O)[C@]1(C)C8)O[C@@](C)(CO)C[C@@H]2O (stereo partly drawn) What is its recorded TGI?
Reply text: 2.39 µM

Inquiry: Try `O=C1OC(c2ccc([N+](=O)[O-])cc2)=N/C1=C\c1ccc(Cl)cc1` next.
Reply text: > 100 µM

Inquiry: Try `O=c1c(NCc2ccccc2)c(C2(c3ccccc3F)SCCCS2)c1=O` next.
Reply text: > 100 µM

Inquiry: Try `CC(C)(C)OC(=O)NCCCCCCCCCn1c2c(c3ccccc3c1=O)C(=O)c1ccccc1-2` next.
Reply text: > 100 µM

Inquiry: Try COc1ccc(N2C(=O)C3ON(Cc4ccc(CC(N)=O)cc4)C(c4c5ccccc5c(C)c5ccccc45)C3C2=O)cc1 (stereo not drawn) next.
Reply text: > 100 µM

Inquiry: Try O=[N+]([O-])c1ccc2c(c1)nc1n2C(c2c(F)cccc2F)SC1 (stereo not drawn) next.
Reply text: > 100 µM

Inquiry: Try `Nc1nnc(N)n1N` next.
Reply text: > 100 µM

Inquiry: Try `COc1ccc(SCc2cc(OC)ccc2OC)cc1` next.
Reply text: > 100 µM

* * *

Exercise: state measured TGI for each of the compounds provided.
Test system: CAKI-1 renal
Experiment: NCI tumour cell line growth inhibition, 48 h

Inquiry: Which measured TGI belongs to `O=S1(=O)OCCOS(=O)(=O)C1(F)Cc1ccccc1` , tested on CAKI-1 renal?
Reply text: > 100 µM

Inquiry: Try `Cc1nc2c(Cl)cc(Cl)cc2c2c1CCO2` next.
Reply text: > 100 µM

Inquiry: Try N#CN1CC[C@@H]2CC3(CCC2C1)OCCO3 (stereo partly specified) next.
Reply text: > 100 µM

Inquiry: Try `O=C1CCCC2=C1CC1=C(CCCC1=O)N2c1ccc(Cl)cc1` next.
Reply text: > 100 µM

Inquiry: Try `O=C1c2ccccc2C(=O)N1c1ccc(Cc2ccc(N3C(=O)c4ccccc4C3=O)cc2)cc1` next.
Reply text: > 100 µM

Inquiry: Try `Cc1[nH]c(=O)nc(N/N=C/c2c3ccccc3c(Cl)c3ccccc23)c1C(=O)Nc1ccc(Cl)cc1` next.
Reply text: > 100 µM

Inquiry: Try `COc1ccc(C2=C(OC(C)=O)c3cccn3-c3ccc(Cl)cc3S2)cc1` next.
Reply text: > 10 µM

Inquiry: Try `COc1ccc2[nH]c3c(C)c4c(c(C)c3c2c1)CN(C)C=C4` next.
Reply text: 57.5 µM

Inquiry: Try `CN(c1cccc(C(=O)O)c1)c1cc(O/N=[N+](\[O-])N(C)C)c([N+](=O)[O-])cc1[N+](=O)[O-]` next.
Reply text: > 100 µM

Inquiry: Try `COc1cc(C[C@H]2COC(=O)[C@]2(O)Cc2ccc(OCc3ccccc3)c(OC)c2)ccc1OCc1ccccc1` next.
Reply text: > 100 µM

Inquiry: Try `CC(=O)c1cc2c(Br)cccc2oc1=O` next.
Reply text: > 100 µM

Inquiry: Try `O=C(c1ccc(Cl)cc1Cl)N1CCN(C(=O)c2ccc(Cl)cc2Cl)C1=S` next.
Reply text: 52.1 µM

Inquiry: Try `CCN(Cc1ccc(Cl)c(Cl)c1)c1ccc2nc(N)nc(N)c2c1C` next.
Reply text: 0.802 µM

Inquiry: Try CC(C)(C)OC(=O)NC(CSCc1ccc(C(=O)c2ccccc2)cc1)C(=O)N1CCN(CCCCN2c3ccccc3Sc3cc(N=[N+]=[N-])ccc32)CC1 (stereo unspecified) next.
Reply text: > 100 µM

Inquiry: Try CC1(Cl)C(=O)NC(=O)N([C@H]2C[C@H](O)[C@@H](CO)O2)C1N=[N+]=[N-] (stereo partly specified) next.
Reply text: > 100 µM

Inquiry: Try `O=C1OC(c2ccc([N+](=O)[O-])cc2)=N/C1=C\c1ccc(Cl)cc1` next.
Reply text: > 100 µM

Inquiry: Try `O=c1c(NCc2ccccc2)c(C2(c3ccccc3F)SCCCS2)c1=O` next.
Reply text: > 100 µM

Inquiry: Try O=C(CC(C(=O)c1ccsc1)c1cccs1)c1ccccc1 (stereo unspecified) next.
Reply text: > 100 µM

Inquiry: Try `N.N.N.N.N#N.N#N.[Cl-].[Os+6]` next.
Reply text: > 100 µM

Inquiry: Try `CN(C)N1C(=O)C(=O)N(c2cccc3ccccc23)C1=O` next.
Reply text: > 10 µM

Inquiry: Try `Cc1cc(NC(=O)NCCOc2ccc(N3C(N)=NC(N)=NC3(C)C)cc2Cl)ccc1S(=O)(=O)F` next.
Reply text: > 100 µM

Inquiry: Try `Nc1cc(CO)cc(Nc2c3ccccc3nc3ccccc23)c1` next.
Reply text: 31.7 µM

Inquiry: Try CCCC(=O)OCC1OC(n2cc(F)c(=O)[nH]c2=O)CC1OC(=O)CCC (stereo unspecified) next.
Reply text: > 7.85 µM

Inquiry: Try CCC1c2[nH]c3ccccc3c2C[C@H]2C(=O)NC(C)C(=O)N12 (stereo partly specified) next.
Reply text: > 100 µM

Inquiry: Try `COC(=O)[C@@]12CSC[C@]1(C(=O)OC)N[C@@H](c1ccccc1O)C2` next.
Reply text: > 100 µM

Inquiry: Try `CCOC(=O)/C(C(N)=O)=C(\O)C(=O)/C=C(\O)c1ccc(Cl)cc1` next.
Reply text: 64 µM

Inquiry: Try `CN[C@@H](C)C(=O)N[C@H](C(=O)N1CCC[C@H]1c1nc(C(=O)c2ccc(F)cc2)cs1)C1CCCCC1` next.
Reply text: > 100 µM

Inquiry: Try `C[C@H]1C[C@@H](n2c(Nc3ccc(OC(F)(F)F)cc3)nc3cc(CCC(=O)O)ccc32)CC(C)(C)C1` next.
Reply text: 28.8 µM

Inquiry: Try `CC1=C[P+](c2ccccc2)(c2ccccc2)c2ccccc2O1` next.
Reply text: > 100 µM

Inquiry: Try `ClCCCN1CCN(CCCl)CC1` next.
Reply text: 358 µM

Inquiry: Try `O=NNc1ccc(-c2ccccc2)cn1` next.
Reply text: 43.8 µM

Inquiry: Try `COc1cc(/C=C/C(=O)CC(=O)/C=C/c2cc(C)c(O)c(OC)c2)cc(C)c1O` next.
Reply text: > 100 µM

Inquiry: Try `COC(=O)CNC(=O)C(=O)c1c(O)c(O)c(C(C)C)c2cc(C)c(-c3c(C)cc4c(C(C)C)c(O)c(O)c(C(=O)C(=O)NCC(=O)OC)c4c3O)c(O)c12` next.
Reply text: 14.3 µM

Inquiry: Try `COc1ccc(SCc2cc(OC)ccc2OC)cc1` next.
Reply text: > 100 µM

Inquiry: Try `O=C(N/N=C\c1ccc(Cl)cc1)Nc1ccc2ccccc2c1` next.
Reply text: > 100 µM

Inquiry: Try CC(C)(C)c1cc(C2c3cc4c(cc3OC(O)(CO)C2C(=O)O)OCO4)cc(C(C)(C)C)c1O (stereo unspecified) (tested in a mixture with another compound) next.
Reply text: 50.3 µM

Inquiry: Try `COc1ccc(-c2c(C#N)c(N)[nH]c(=S)c2C#N)cc1` next.
Reply text: > 100 µM

Inquiry: Try `O=C(Cn1c2ccc(Br)cc2c2nc3ccccc3nc21)NCc1ccccc1` next.
Reply text: > 100 µM

Inquiry: Try `O=S(=O)(F)Cc1ccccc1` next.
Reply text: > 100 µM

Inquiry: Try `COc1ccc([N+](=O)[O-])c2c(NCCCN(C)C)c(C)c(C)nc12` next.
Reply text: > 100 µM

Inquiry: Try COc1ccc(N2C(=O)C3ON(Cc4ccc(CC(N)=O)cc4)C(c4c5ccccc5c(C)c5ccccc45)C3C2=O)cc1 (stereo unspecified) next.
Reply text: > 100 µM
